Biological target: Cbl-b (residues 36-427) (Homo sapiens)
Assay: Cbl-b binding assay (SPR, Biacore T200)
Details: 20° C., 1:1 binding model
pKd: −log10 of the molar value.
READOUT NAME: pKd

// pKd value for `C[C@H](Sc1nncn1C)c1cccc(NC(=O)c2ccnc(C(F)(F)F)n2)c1` : 6.00 to 6.52

// pKd value for `C[C@H](Sc1nncn1C)c1cccc(NC(=O)c2cc(C(=O)NC[C@@H](C)O)ccn2)c1` : 5.00 to 5.52

// pKd value for CC(O)c1cc2c(c(C(F)(F)F)c1)CN(c1cccc([C@@](C)(F)C(F)(F)c3nncn3C)c1)C2=O (stereo partly drawn) : 6.52 to 7.00

* * *

Tested on: T-cell
Test: IL-2 secretion from T-cells stimulated with anti-CD3 antibody alone (Biological Example 2)
Type: cell-based, human
Details: Homo sapiens, T-cell; 1 μM Cbl-b inhibitor; fold change over baseline (anti-CD3/anti-CD28 stimulated T-cells without inhibitor); read-out: IL-2 secretion Anti-CD3 stimulation
Parameter: fold induction at 1 µM. Scope: all listed entries.

Example entries and their recorded answers appear below.
> print(dat)
                                   molecule    measurement
1  CN1CC2CCC1CN2c1cc2c(c(C(F)(F)F)c1)CN(c1cccc([C@@](C)(F)C(F)(F)c3nncn3C)c1)C2=O (some centres unmarked)  0.101 to 0.15
2  Cn1cnnc1CC1(c2cccc(NC(=O)c3cc(CN4CC[C@H](F)C4)nc(C4CC4)n3)c2)COC1        > 0.201
3  Cn1cnnc1CC1(c2cccc(N3Cc4c(cc(N5CC(C(F)F)C5)nc4C4CC4)C3=O)c2)COC1  0.101 to 0.15

// fold induction at 1 µM value for Cn1cnnc1[C@H](F)C1(c2cccc(N3Cc4c(cc(CN5CCCC5)cc4C(F)(F)F)C3=O)c2)COC1 [Example 673b] : > 0.201

// fold induction at 1 µM value for Cn1cnnc1[C@H](F)C1(c2cccc(N3Cc4c(cc(CN5CCCCC5)cc4C(F)(F)F)C3=O)c2)COC1 [Example 674b] : > 0.201

// fold induction at 1 µM value for `Cn1cnnc1CC1(c2cccc(N3Cc4c(cc(OC(F)F)cc4C(F)(F)F)C3=O)c2)COC1` : 0.051 to 0.1

// fold induction at 1 µM value for CC(c1cc2c(c(C3CC3)n1)CN(c1cccc(C3(Cc4nncn4C)COC3)c1)C2=O)N1CCC2(CC2)C1 (centres unmarked) : 0.051 to 0.1

// fold induction at 1 µM value for `Cc1cc(C(=O)Nc2cccc(C3(C(F)(F)c4nncn4C)COC3)c2)nc(C2CC2)n1` : 0.101 to 0.15

* * *

Cbl-b (residues 36-427) (Homo sapiens, UniProt Q13191) data, read-out Kd
Sequence (Q13191 36-427): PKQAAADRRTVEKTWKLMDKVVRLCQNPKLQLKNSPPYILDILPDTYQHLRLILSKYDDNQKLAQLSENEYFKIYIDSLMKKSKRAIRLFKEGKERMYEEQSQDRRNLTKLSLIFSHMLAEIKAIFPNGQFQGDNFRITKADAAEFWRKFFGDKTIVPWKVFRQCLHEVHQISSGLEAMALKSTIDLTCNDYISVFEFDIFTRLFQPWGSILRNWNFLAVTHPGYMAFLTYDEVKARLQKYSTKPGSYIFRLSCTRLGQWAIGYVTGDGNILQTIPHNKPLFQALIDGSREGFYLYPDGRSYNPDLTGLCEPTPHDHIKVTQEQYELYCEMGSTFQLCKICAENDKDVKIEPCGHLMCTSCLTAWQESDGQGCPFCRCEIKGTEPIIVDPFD

Example entries and their recorded answers appear below.
> print(dat)
                                   molecule      measurement
1  C[C@H](Sc1nncn1C)c1cccc(NC(=O)c2cc(C(=O)N3CC(O)C3)ccn2)c1  1000 to 3000 nM
2  Cc1cc(C)nc(C(=O)Nc2cccc([C@H](C)Sc3nncn3C)c2)c1  1000 to 3000 nM
3  CCn1cnnc1C[C@@H](C)c1cccc(NC(=O)c2cc(C(=O)N3C[C@@H](O)C[C@H]3C)ccn2)c1  1000 to 3000 nM
4  C[C@H](Cc1nncn1C)c1cccc(N2Cc3c(cc(CN4CC[C@@H](F)C4)cc3C(F)(F)F)C2=O)c1         < 100 nM
5  C[C@@H](Sc1nncn1C)c1cc(F)cc(N2Cc3c(cccc3C(F)(F)F)C2=O)c1 [Compound 168b]  1000 to 3000 nM
6  C[C@H](Cc1n[nH]cc1C(F)(F)F)c1cccc(N2Cc3c(cc(C(=O)N4CC[C@H](O)C4)cc3C(F)(F)F)C2=O)c1         < 100 nM

// Kd value for `C[C@H](Sc1nncn1C)c1cccc(NC(=O)c2ccc(C#N)c(C3CC3)n2)c1` : 100 to 300 nM

* * *

Test system: T-cell
Experiment: IL-2 secretion from T-cells stimulated with anti-CD3 antibody alone (Biological Example 2)
Type: cell-based, human
Conditions: T-cell; fold change over baseline; 1 μM Cbl-b inhibitor; primary human total T-cells; read-out: IL-2 secretion Anti-CD3 stimulation
Parameter: fold induction at 1 µM. Scope: all listed entries.

> print(dat)
                                   compound            readout.name    measurement
1  C[C@H](Cc1nncn1C)c1cccc(NC(=O)c2cc(C(=O)N3C[C@@H](O)C[C@H]3C)ccn2)c1  fold induction at 1 µM  0.101 to 0.15
2  Cn1cnnc1C[C@](C)(F)c1cccc(N2Cc3c(cccc3C(F)(F)F)C2=O)c1 [Compound 298b]  fold induction at 1 µM   0.051 to 0.1
3  Cc1cc(C(=O)Nc2cccc(C3(C(F)(F)c4nncn4C)CC3)c2)nc(C2CC2)n1  fold induction at 1 µM  0.101 to 0.15

// fold induction at 1 µM value for C[C@H](Sc1nncn1C)c1cccc(N2Cc3c(cccc3C(F)(F)F)C2=O)c1 [Compound 166a] : < 0.05

// fold induction at 1 µM value for `C[C@H](Cc1nncn1C)c1cccc(NC(=O)c2cc(O[C@H]3CC[C@@H](O)C3)ccn2)c1` : < 0.05

// fold induction at 1 µM value for `C[C@H](Cc1nncn1C)c1cccc(NC(=O)c2ccn3nccc3n2)c1` : 0.051 to 0.1

// fold induction at 1 µM value for Cn1cnnc1CC(c1cccc(N2Cc3c(cccc3C(F)(F)F)C2=O)c1)C(F)(F)F (stereo not shown) : 0.101 to 0.15

// fold induction at 1 µM value for `C[C@H](Cc1nnc[nH]1)c1cccc(N2Cc3c(cccc3C(F)(F)F)C2=O)c1` : < 0.05

// fold induction at 1 µM value for `C[C@H](Cc1nncn1C)c1cccc(N2Cc3c(ccnc3C3CC3)C2=O)c1` : 0.151 to 0.2

// fold induction at 1 µM value for `C[C@H](Sc1nncn1C)c1cccc(NC(=O)c2cc(Cl)cc(C(F)(F)F)n2)c1` : < 0.05

// fold induction at 1 µM value for Cc1conc1CC(C)c1cccc(N2Cc3c(cccc3C(F)(F)F)C2=O)c1 (stereo not shown) : < 0.05

// fold induction at 1 µM value for `C[C@H](Cc1nncn1C)c1cc(NC2CCC2)nc(N2Cc3c(cccc3C(F)(F)F)C2=O)c1` : < 0.05

// fold induction at 1 µM value for `C[C@H](Sc1nncn1C)c1cccc(NC(=O)c2cc(C(=O)N3CC[C@H](O)C3)ccn2)c1` : < 0.05

* * *

Target: Cbl-b (Homo sapiens, UniProt Q13191)
Sequence (Q13191 36-427): as above
Experiment: Cbl-b inhibition assay (Cbl-b activity assay, FRET, Biological Example 1; 100 mM NaCl, 60 nM Src kinase)
Assay type: biochemical
Conditions: upper bound stated in text lists; read-out: IC50 values in the Cbl-b inhibition assay of Biological Example 1
pIC50: −log10 of the molar value.
Parameter: pIC50. Scope: all listed entries.

> print(dat)
                                   compound                                   tgt  measurement
1  Cc1cc(C(=O)Nc2cccc(C3(Cc4nncn4C)COC3)c2)n2ncc(C)c2n1  Cbl-b (Homo sapiens, UniProt Q13191)       ≥ 7.00

// pIC50 value for `Cn1cnnc1CC1(c2cccc(N3Cc4c(cc(CN5CC(C)(F)C5)cc4C(F)(F)F)C3=O)c2)COC1` : ≥ 7.00

// pIC50 value for CC(Sc1nncn1C)c1cc(NC[C@H](C)O)nc(N2Cc3c(cccc3C(F)(F)F)C2=O)c1 (stereo partly shown) : ≥ 5.00

// pIC50 value for `C[C@H](Sc1nncn1C)c1cccc(N2Cc3c(ccnc3Cl)C2=O)c1` : ≥ 6.30

* * *

Tested on: T-cell
Assay: CD25 cell surface staining on T-cells co-stimulated with anti-CD3 and anti-CD28 antibody (Biological Example 2)
Type: cell-based, human
Settings: Homo sapiens, T-cell, fold change over baseline; 0.3 μM Cbl-b inhibitor; primary human total T-cells; read-out: CD25 staining Anti-CD3/Anti-CD28 stimulation
READOUT NAME: fold induction at 0.3 µM

Example entries and their recorded answers appear below.
> print(dat)
                                   molecule  measurement
1  C[C@H](Cc1nncn1C)c1cccc(NC(=O)c2cc(S(C)(=O)=O)cc(C3CC3)n2)c1 [Compound 198]  1.01 to 1.3
2  Cc1cc(C(=O)Nc2cccc([C@@](C)(F)C(F)(F)c3nncn3C)c2)nc(C2CC2)n1 [Compound 344]  1.01 to 1.3
3  C[C@H](Cc1nncn1C)c1cccc(NC(=O)c2cccc(C(F)(F)CO)n2)c1 [Compound 188]  1.01 to 1.3
4  C[C@H](Sc1nncn1C)c1cccc(NC(=O)c2cc(C(=O)N3CC(O)C3)ccn2)c1 [Compound 148]          < 1

Now examine the next entry.
// fold induction at 0.3 µM value for Cc1cc(C(=O)Nc2cccc([C@H](C)Sc3nncn3C)c2)nc2ccccc12 [Compound 30] : 1.01 to 1.3

Hello, the source for this data is patent US20220324835A1, in case you need it.
